Provide the recorded MIC for the entries that follow.
- Tested on: Streptococcus pneumoniae
- measurement-notes: Antibacterial activity against Streptococcus pneumoniae IID553
- Format: functional
- cond: Streptococcus pneumoniae, IID553; read-out: MIC
// note: answer is a bare numeric in µg/mL

Task: Param item = "COc1ccc2ncc(F)c(CCC34CCC(NCc5nc6c(c(C)c5C)OCC(=O)N6)(CC3)CO4)c2n1" ; retrieve measured MIC.
Output: 8

Task: Please report the recorded MIC for COc1ccc2ncc(F)c(C[C@H](O)C3CCC(NCc4nc5c(cc4F)OCC(=O)N5)CO3)c2n1 (stereo partly drawn) .
Output: 0.25

Task: Reported MIC, molecule "COc1ccc2ncc(F)c(CCC34CCC(N(C)C(=O)c5ccc6c(n5)NC(=O)CO6)(CC3)CO4)c2n1" : ____
Output: 4

Task: Which MIC is listed for "COC(=O)N(Cc1ccc2c(n1)NC(=O)CO2)C12CCC(CCc3c(F)cnc4ccc(OC)nc34)(CC1)OC2" ?
Output: 64

Task: Consider the molecule shown here: COc1ccc2ncc(F)c(CCC34CCC(NCc5ccc6c(n5)NC(=O)C(C)O6)(CC3)CO4)c2n1 (single isomer, unassigned; (+)) What is its recorded MIC?
Output: 0.25

Task: Can you share its MIC? I mean this molecule: "COc1ccc2ncc(F)c(CCC34CCC(N(C)Cc5ccc6c(n5)NC(=O)CO6)(CC3)CO4)c2n1"
Output: 2

Task: Item under review: COc1ccc2ncc(F)c(C[C@H](O)C3CCC(NCc4nc5c(cc4OC)OCC(=O)N5)CO3)c2n1 (stereo partly drawn) . Reported MIC?
Output: 16

Task: GET /values?readout=MIC&item= "COc1ccc2ncc(F)c(CCC34CCC(NCc5nc6c(cc5F)OCC(=O)N6)(CC3)CO4)c2n1"
Output: 0.13

###

So I've got a bunch of compounds here, and I need their MIC values.
- Test system: Streptococcus pneumoniae
- measurement-notes: Antibacterial activity against Streptococcus pneumoniae IID553
- Assay type: functional
- cond: Streptococcus pneumoniae, IID553; read-out: MIC
Report the value in µg/mL with no unit label.

Task: Name the recorded MIC for "COc1ccc2ncc(F)c(CCC34CCC(NCc5nc6c(cc5OC)OCC(=O)N6)(CC3)CO4)c2n1" .
Output: 8

Task: What value of measured MIC is listed for "COc1ccc2ncc(F)c(CCC34CCC(NCc5nc6c(cc5Cl)OCC(=O)N6)(CC3)CO4)c2n1" ?
Output: 0.25

Task: So what's the measured MIC for this one? "COc1ccc2ncc(F)c(CCC34CCC(NCc5ccc6c(n5)NC(=O)C(C)(C)O6)(CC3)CO4)c2n1"
Output: 1

Task: Which MIC reading was recorded for the compound "CCc1c(CNC23CCC(CCc4c(F)cnc5ccc(OC)nc45)(CC2)OC3)nc2c(c1C)OCC(=O)N2" ?
Output: 32

###

- Test system: Streptococcus pneumoniae
- measurement-notes: Antibacterial activity against Streptococcus pneumoniae IID553
- Format: functional
- cond: Streptococcus pneumoniae, IID553; read-out: MIC
Rule: MIC below 4 µg/mL gives yes (1), anything at or above gives no (0).

Task: Report whether reported MIC is lower than 4 µg/mL (strictly) for "COc1ccc2ncc(F)c(CCC34CCC(NCc5ccc6c(n5)N(C)C(=O)CO6)(CC3)CO4)c2n1"
Output: yes (1)

Task: hey, is MIC for CCOC(=O)C1(C)Oc2ccc(CNC34CCC(CCc5c(F)cnc6ccc(OC)nc56)(CC3)OC4)nc2NC1=O (single isomer, unassigned; (-)) lower than 4 µg/mL or not?
Output: no (0)

Task: # strict comparison: is reported MIC < 4 µg/mL? input = "COc1ccc2ncc(F)c(CCC34CCC(NCc5nc6c(c(C)c5C(C)C)OCC(=O)N6)(CC3)CO4)c2n1"
Output: no (0)

Task: Given "COc1ccc2ncc(F)c(CCC34CCC(NC(=O)c5ccc6c(n5)NC(=O)CO6)(CC3)CO4)c2n1" , is recorded MIC strictly lower than 4 µg/mL?
Output: yes (1)

Task: Is MIC strictly under 4 µg/mL for the entry "COc1ccc2ncc(F)c(CCC34CCC(NCc5nc6c(cc5C)OCC(=O)N6)(CC3)CO4)c2n1" ?
Output: yes (1)

Task: Record COc1ccc2ncc(F)c(C[C@H](O)C3CCC(NCc4ccc5c(n4)NC(=O)CO5)CO3)c2n1 (stereo not given in full) : is its MIC strictly below 4 µg/mL?
Output: yes (1)

Task: Problem: For the compound "C=Cc1c(CNC23CCC(CCc4c(F)cnc5ccc(OC)nc45)(CC2)OC3)nc2c(c1C)OCC(=O)N2" , is MIC under 4 µg/mL?
Output: no (0)

Task: I wonder whether "COc1ccc2ncc(F)c(CCC34CCC(NCc5ccc6c(n5)NC(=O)CO6)(CC3)CO4)c2n1" has MIC below 4 µg/mL. Can you tell?
Output: yes (1)
